# subject of test: LSD1 (Homo sapiens)
# Construct: made in house; host or cells: Escherichia coli Rosetta 2 (pET15b)
# assay explanation: HRP-coupled fluorescence LSD1 demethylation activity and inhibition assay, substrate H3_1-21 K4(Me)
# Format: biochemical
# conditions: read-out: % inhibition at 100 μM
Each entry below carries its reported inhibition at 100 µM.
Provide only the numeric value, understood in %.

Example entries begin here.
# molecule, readout name, measured
data = [
    ("CSCC[C@@H]1NC(=O)[C@H](NC(=O)[C@H](CCCNC(=N)N)NC(=O)[C@H](C)N)CCC/C=C\\CCC[C@H](C(=O)N[C@@H](C)C(=O)N[C@@H](CCCNC(=N)N)C(=O)N[C@@H](CCCCN)C(=O)N[C@@H](CO)C(=O)N[C@H](C(N)=O)[C@@H](C)O)NC(=O)[C@H](CCC(N)=O)NC1=O (relative stereo) [Peptide 26, AR*G^penMQ*G^penARKST-NH2]", "inhibition at 100 µM", 90),
    ("C=CC[C@H](NC(=O)[C@H](CCC(N)=O)NC(=O)[C@H](CCSC)NC(=O)[C@H](CC=C)NC(=O)[C@H](CCCNC(=N)N)NC(=O)[C@H](C)N)C(=O)N[C@@H](C)C(=O)N[C@@H](CCCNC(=N)N)C(=O)N[C@@H](CCCCN)C(=O)N[C@@H](CO)C(=O)N[C@H](C(N)=O)[C@@H](C)O [Peptide 20, ARG^alyMQG^alyARKST-NH2]", "inhibition at 100 µM", 95),
]

Let's switch to this molecule now.
LSD1 (Homo sapiens) assay, molecule CSCC[C@H](NC(=O)[C@@H]1C/C=C\C[C@H](N)C(=O)N[C@@H](CCCNC(=N)N)C(=O)N1)C(=O)N[C@@H](CCC(N)=O)C(=O)N[C@H](C(=O)N[C@@H](C)C(=O)N[C@@H](CCCNC(=N)N)C(=O)N[C@@H](CCCCN)C(=O)N[C@@H](CO)C(=O)N[C@H](C(N)=O)[C@@H](C)O)[C@@H](C)O [Peptide 19] , recorded inhibition at 100 µM = 100

* * *

# subject of test: LSD1 (Homo sapiens)
# Construct: made in house; host or cells: Escherichia coli Rosetta 2 (pET15b)
# assay explanation: HRP-coupled fluorescence LSD1 demethylation activity and inhibition assay, substrate H3_1-21 K4(Me)
# Type: biochemical
# conditions: read-out: Ki
Bridge positions count the residues as written; N and C are the ends. Peptide text beside a SMILES is read from it.
Each entry below carries its reported Ki.
Provide only the numeric value, understood in µM.

# molecule, subject of test, Ki [µM]
measured = [
    ("CSCC[C@@H]1NC(=O)[C@@H](NC(=O)[C@H](CCCNC(=N)N)NC(=O)[C@@H]2CCCN2)CCCCNC(=O)CC[C@@H](C(=O)N[C@@H](C)C(=O)N[C@@H](CCCNC(=N)N)C(=O)N[C@@H](CCCCN)C(=O)N[C@@H](CO)C(=O)N[C@H](C(N)=O)[C@@H](C)O)NC(=O)[C@H](CCC(N)=O)NC1=O [Peptide 29] (H-PRKMQEARKST-NH2; lactam 3-6)", "LSD1 (Homo sapiens)", 7),
]

Let's switch to this molecule now.
LSD1 (Homo sapiens) assay, molecule CSCC[C@@H]1NC(=O)[C@@H](NC(=O)[C@H](CCCNC(=N)N)NC(=O)[C@@H]2CCCN2)CCC(=O)NCCCC[C@@H](C(=O)N[C@@H](C)C(=O)N[C@@H](CCCNC(=N)N)C(=O)N[C@@H](CCCCN)C(=O)N[C@@H](CO)C(=O)N[C@H](C(N)=O)[C@@H](C)O)NC(=O)[C@H](CCC(N)=O)NC1=O [Peptide 30] (H-PREMQKARKST-NH2; lactam 3-6) , recorded Ki = 22

meta.source: paper PMC7057333
